Origin of the recorded values: ChEMBL document CHEMBL1759917

Biological target: Fibroblast growth factor receptor 3 (Homo sapiens)
Assay: Inhibition of FGFR3 at 50 uM
The source made the active and inactive calls. No cut-off for these calls is given here.
Select the matching outcome among yes (1) (active), no (0) (inactive)

* Ic1nc(NCCN2CCOCC2)c2nc[nH]c2n1 | yes (1)
* OC[C@H]1O[C@@H](CNc2nc(NCCc3ccccc3)nc3[nH]cnc23)[C@@H](O)[C@@H]1O | yes (1)
* OC[C@H]1O[C@@H](CNc2nc(I)nc3[nH]cnc23)[C@@H](OCc2ccccc2)[C@@H]1OCc1ccccc1 | yes (1)
* COc1ccc(CCNc2nc(NC[C@@H]3O[C@H](CO)[C@@H](O)[C@@H]3O)nc3[nH]cnc23)cc1OC | yes (1)

# input Field: outcome | Entry: CCN(CC)CCCNc1nc(N)c2ncn(C[C@@H]3O[C@H](CO)[C@@H](O)[C@H]3O)c2n1
# output no (0)

# input Here is the next compound: OC[C@H]1O[C@@H](CNc2nc(NCCc3ccccc3)c3nc[nH]c3n2)[C@@H](O)[C@@H]1O
# output yes (1)

# input Here is the next compound: Nc1nc(N)c2ncn(C[C@@H]3O[C@H](CO)[C@@H](O)[C@H]3O)c2n1
# output no (0)

# input Here is the next compound: OC[C@H]1O[C@@H](CNc2nc(NCCN3CCOCC3)c3nc[nH]c3n2)[C@@H](O)[C@@H]1O
# output yes (1)
